# pIC50 per entry for Voltage-gated inwardly rectifying potassium channel KCNH2 (Homo sapiens, UniProt Q12809)
In plain terms, pIC50 is the concentration in mol/L turned into minus its base-10 logarithm.

I looked up `C[C@]1(CN2Cc3nc(-c4ccc(F)cc4)sc3C2)Cn2cc([N+](=O)[O-])nc2O1` and its pIC50 for Voltage-gated inwardly rectifying potassium channel KCNH2 (Homo sapiens, UniProt Q12809) was 5.77

Reported pIC50 (Voltage-gated inwardly rectifying potassium channel KCNH2 (Homo sapiens, UniProt Q12809)) for entry `C[C@]1(COc2ccc(N3CCC(Oc4ccc(OC(F)(F)F)cc4)CC3)cc2)CN=C(N)O1` is 7.09

----------
method description: Metabolic stability in human liver microsomes assessed as half life
Assay type: ADME, Microsome
Sorting guide: entries reporting half-life beneath 60 min go in the met pile, the rest go in the not met pile.

smiles_repr=C[C@]1(COc2ccc(N3CCC(Oc4ccc(OC(F)(F)F)cc4)CC3)cc2)Cn2cc([N+](=O)[O-])nc2O1 class_name="not met"
smiles_repr=C[C@]1(CN2Cc3nc(-c4ccc(F)cc4)sc3C2)CN=C(N)O1 class_name="not met"

[in] # strict comparison: is reported half-life < 60 min? input = `C[C@]1(CN2CCc3nc(-c4ccc(F)cc4)ccc3C2)Cn2cc([N+](=O)[O-])nc2O1`
[out] met

[in] Confirm or reject: half-life of `C[C@]1(CN2CCc3nc(-c4ccc(F)cc4)sc3CC2)Cn2cc([N+](=O)[O-])nc2O1` lies strictly below 60 min
[out] met

----------
The entries below are paired with their reported half-life.
method description: Half life in CD-1 mouse at 0.6 mg/kg, iv
Assay type: ADME, organism-based
run parameters: in vivo
Give the value, in units of h, as a plain number.

smiles_repr=C[C@]1(CN2Cc3nc(-c4ccc(F)cn4)sc3C2)Cn2cc([N+](=O)[O-])nc2O1 measurement_name=half-life readout_unit=h numeric_result=1.71
smiles_repr=C[C@]1(CN2Cc3nc(-c4ccc(F)cc4F)sc3C2)Cn2cc([N+](=O)[O-])nc2O1 measurement_name=half-life readout_unit=h numeric_result=3.08
smiles_repr=Cc1cc(F)ccc1-c1nc2c(s1)CN(C[C@@]1(C)Cn3cc([N+](=O)[O-])nc3O1)C2 measurement_name=half-life readout_unit=h numeric_result=2.06
smiles_repr=C[C@]1(CN2Cc3nc(-c4ncc(F)cc4F)sc3C2)Cn2cc([N+](=O)[O-])nc2O1 measurement_name=half-life readout_unit=h numeric_result=1.4

Consider now this further compound.
Input `C[C@]1(CN2Cc3nc(-c4ccc(F)cc4)sc3C2)CN=C(N)O1` . Output half-life: 3.25

----------
Lab note: pIC50 readings collected with Cytochrome P450 3A4 (Homo sapiens, UniProt P08684) for the following compounds.
Sequence (P08684 whole entry): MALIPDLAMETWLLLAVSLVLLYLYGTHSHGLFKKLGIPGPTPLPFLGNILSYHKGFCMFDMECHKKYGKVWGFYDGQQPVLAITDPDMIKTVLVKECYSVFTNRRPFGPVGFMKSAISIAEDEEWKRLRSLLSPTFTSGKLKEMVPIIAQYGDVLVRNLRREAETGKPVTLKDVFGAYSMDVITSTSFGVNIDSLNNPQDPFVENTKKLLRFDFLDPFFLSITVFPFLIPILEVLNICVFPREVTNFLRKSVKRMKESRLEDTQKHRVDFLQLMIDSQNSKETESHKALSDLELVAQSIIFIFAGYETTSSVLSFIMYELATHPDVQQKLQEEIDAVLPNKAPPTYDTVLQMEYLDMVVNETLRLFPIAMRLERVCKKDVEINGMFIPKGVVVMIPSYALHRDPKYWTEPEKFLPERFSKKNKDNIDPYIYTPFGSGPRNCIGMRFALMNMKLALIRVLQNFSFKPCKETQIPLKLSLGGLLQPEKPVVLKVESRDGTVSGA
pIC50: −log10 of the molar value.

smiles_repr=C[C@]1(CN2Cc3nc(-c4ccc(F)cc4)sc3C2)CN=C(N)O1 assayed_target="Cytochrome P450 3A4 (Homo sapiens, UniProt P08684)" result="< 4.00"

Alright, here's another compound for you.
pIC50 for Cytochrome P450 3A4 (Homo sapiens, UniProt P08684) with input `C[C@]1(COc2ccc(N3CCC(Oc4ccc(OC(F)(F)F)cc4)CC3)cc2)Cn2cc([N+](=O)[O-])nc2O1` equals < 4.00

----------
method description: Half life in Beagle dog at 0.5 mg/kg, iv
Format: ADME, organism-based, Canis lupus familiaris
run parameters: in vivo
measurement name: half-life (h)
Report the value in h with no unit label.

smiles_repr=C[C@]1(CN2Cc3nc(-c4ccc(F)cc4)sc3C2)Cn2cc([N+](=O)[O-])nc2O1 numeric_result=15.3

Could you now look at the following compound, please?
// sample `C[C@]1(CN2Cc3nc(-c4ccc(F)cc4)sc3C2)CN=C(N)O1` , its half-life was 6.03

----------
method description: Half life in Sprague-Dawley rat at 1 mg/kg, iv
Format: ADME, organism-based
run parameters: in vivo
Each entry below lists one item and its recorded half-life value.
Dear colleague, please return just the value in h, with no unit written.

smiles_repr=C[C@]1(CN2Cc3nc(-c4ccc(F)cc4)sc3C2)Cn2cc([N+](=O)[O-])nc2O1 measurement_name=half-life readout_unit=h numeric_result=4.65

Okay, next one:
In plain terms, `C[C@]1(CN2Cc3nc(-c4ccc(F)cc4)sc3C2)CN=C(N)O1` has a documented half-life of 2.79

----------
method description: Clearance in Beagle dog at 0.5 mg/kg, iv
Format: ADME, organism-based, Canis lupus familiaris
run parameters: in vivo
measurement name: clearance (mL/min/kg)
Kindly provide the numeric value in mL/min/kg only, without the unit symbol.

Notebook: `C[C@]1(CN2Cc3nc(-c4ccc(F)cc4)sc3C2)CN=C(N)O1` , clearance read as 12

----------
Catalogue of compounds with associated pIC50
assayed target: A-type voltage-gated potassium channel KCND3 (Homo sapiens)
Sequence (Q9UK17 whole entry): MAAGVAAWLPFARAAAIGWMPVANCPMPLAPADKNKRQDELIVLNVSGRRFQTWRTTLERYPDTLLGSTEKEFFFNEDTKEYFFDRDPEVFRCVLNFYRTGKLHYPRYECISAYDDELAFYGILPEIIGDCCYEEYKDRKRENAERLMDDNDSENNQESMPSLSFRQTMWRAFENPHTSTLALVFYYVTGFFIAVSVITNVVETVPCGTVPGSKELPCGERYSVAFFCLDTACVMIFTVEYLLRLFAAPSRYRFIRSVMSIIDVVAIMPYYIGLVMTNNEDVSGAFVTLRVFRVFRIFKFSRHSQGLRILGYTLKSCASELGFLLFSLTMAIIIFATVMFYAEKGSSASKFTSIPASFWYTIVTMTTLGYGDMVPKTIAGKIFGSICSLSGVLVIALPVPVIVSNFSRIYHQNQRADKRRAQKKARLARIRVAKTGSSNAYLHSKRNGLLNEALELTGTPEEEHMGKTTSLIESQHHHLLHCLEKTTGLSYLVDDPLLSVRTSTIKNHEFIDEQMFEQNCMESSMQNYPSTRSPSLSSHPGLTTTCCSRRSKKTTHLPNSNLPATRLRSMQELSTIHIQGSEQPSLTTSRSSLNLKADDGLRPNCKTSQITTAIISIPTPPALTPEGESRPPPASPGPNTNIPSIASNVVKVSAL
pIC50: −log10 of the molar value.

smiles_repr=C[C@]1(CN2Cc3nc(-c4ccc(F)cc4)sc3C2)CN=C(N)O1 assayed_target="A-type voltage-gated potassium channel KCND3 (Homo sapiens)" measurement_name=pIC50 result="< 4.88"

Shifting focus to the compound that follows.
Query `C[C@]1(CN2Cc3nc(-c4ccc(F)cc4)sc3C2)Cn2cc([N+](=O)[O-])nc2O1` yields pIC50 of < 4.40

----------
// reported fraction unbound per item
method description: Plasma protein binding in dog assessed as bound fraction
Type: ADME, cell-free, Canis lupus familiaris
run parameters: read-out: PPB (converted)
Write the number on its own, no unit after it.

Notebook: `C[C@]1(CN2Cc3nc(-c4ccc(F)cc4)sc3C2)CN=C(N)O1` , fraction unbound read as 0.036

Value of measured fraction unbound for the entry `C[C@]1(COc2ccc(N3CCC(Oc4ccc(OC(F)(F)F)cc4)CC3)cc2)Cn2cc([N+](=O)[O-])nc2O1` : 0.005

----------
method description: Apparent permeability across basolateral to apical side in dog MDCK cells
Assay type: ADME, cell-based, Canis lupus familiaris
measurement name: Papp B→A (×10⁻⁶ cm/s)
Entry rule: numbers only, all in ×10⁻⁶ cm/s.

So, `C[C@]1(CN2Cc3nc(-c4ccc(F)cc4)sc3C2)CN=C(N)O1` ? Its Papp B→A was 15.8

----------
method description: Volume of distribution in CD-1 mouse at 0.6 mg/kg, iv
Format: ADME, organism-based
run parameters: in vivo
Known Vd of a selection of molecules
A number alone suffices; assume L/kg.

Reference set (4 entries):
smiles_repr=Cc1cc(F)ccc1-c1nc2c(s1)CN(C[C@@]1(C)Cn3cc([N+](=O)[O-])nc3O1)C2 readout_unit=L/kg numeric_result=3.38
smiles_repr=C[C@]1(CN2Cc3nc(-c4ncc(F)cc4F)sc3C2)Cn2cc([N+](=O)[O-])nc2O1 readout_unit=L/kg numeric_result=1.57
smiles_repr=C[C@]1(CN2Cc3nc(-c4ccc(F)cn4)sc3C2)Cn2cc([N+](=O)[O-])nc2O1 readout_unit=L/kg numeric_result=2.02
smiles_repr=C[C@]1(CN2Cc3nc(-c4ccc(F)cc4F)sc3C2)Cn2cc([N+](=O)[O-])nc2O1 readout_unit=L/kg numeric_result=2.66

`C[C@]1(CN2Cc3nc(-c4ccc(F)cc4)sc3C2)CN=C(N)O1` yielded Vd of 2.69

----------
method description: Aqueous solubility of compound at pH 7.4
Format: physicochemical
run parameters: buffer
measurement name: solubility (µM)
# unit: µM | format: bare number

Just so you know, measured solubility for `C[C@]1(CN2Cc3nc(-c4ccc(F)cc4)sc3C2)CN=C(N)O1` came out at 13.5
